target: T1, HLA-A*0301 (human); assay: REVEAL off rate analysis of peptide-MHC pentamers, 37 C, 0, 2 and 24 h
T1 construct: Class I MHC molecule of the ProImmune REVEAL assay; also called HLA-A3
Measured quantity: t1/2 (h)

Worked set:
ILAQYNTTK (synthetic nine-residue peptide of human CD133 (ProImmune)) [CD133 peptide ILAQYNTTK (SEQ ID NO:5)]    2.07
RTRIKRSRK (synthetic nine-residue peptide of human CD133 (ProImmune)) [CD133 peptide RTRIKRSRK (SEQ ID NO:7)]    23.9

A. NLFWFGIGK (synthetic nine-residue peptide of human CD133 (ProImmune)) [CD133 peptide NLFWFGIGK (SEQ ID NO:9)]
B. LSSSLTSVK (synthetic nine-residue peptide of human CD133 (ProImmune)) [CD133 peptide LSSSLTSVK (SEQ ID NO:8)]
So which one has the bigger t1/2 here, A or B ? Answer = label.
A
(A: 3.35 h, B: 1.8 h)
